Record form. Attribute: pEC50. Fill in for each entry.
- experimental-target: proteasome in Molt-4 cells (human leukemia) (Homo sapiens, UniProt P20618+P28074)
- Assay type: cell-based
- cond: assay of Example E, inhibition of MOLT4; read-out: MOLT4 (EC50)
pEC50: −log10 of the molar value.

# example entries with known answers
Cc1ccccc1C(=O)N[C@@H](CCCNC(=N)N[N+](=O)[O-])C(=O)N[C@@H](CC(C)C)B(O)O	< 5.00
CCCCCCCC(=O)N[C@@H](CCCNC(=N)N[N+](=O)[O-])C(=O)N[C@@H](CC(C)C)B1O[C@@H]2C[C@@H]3C[C@@H](C3(C)C)[C@]2(C)O1	> 6.70
CC(C)C[C@H](NC(=O)[C@H](CCCNC(=N)N[N+](=O)[O-])NC(=O)CCCNC(=O)OCC1c2ccccc2-c2ccccc21)B(O)O	5.70 to 6.70
Cc1ccc(OCC(=O)N[C@H](C(=O)N[C@@H](CC(C)C)B(O)O)[C@@H](C)O)cc1	> 6.70
CC(C)C[C@H](NC(=O)[C@H](CCCNC(=N)N[N+](=O)[O-])NC(=O)CCCCCCCCCO)B1O[C@@H]2C[C@@H]3C[C@@H](C3(C)C)[C@]2(C)O1	5.70 to 6.70

**Q:** Name the reported pEC50 value associated with the compound COC(=O)CCCCCCC(=O)N[C@@H](CCCNC(=N)N[N+](=O)[O-])C(=O)N[C@@H](CC(C)C)B(O)O
**A:** < 5.00

---

Record form. Attribute: pEC50. Fill in for each entry.
- experimental-target: proteasome in Molt-4 cells (human leukemia) (Homo sapiens, UniProt P20618+P28074)
- Sequence (P28074 60-263): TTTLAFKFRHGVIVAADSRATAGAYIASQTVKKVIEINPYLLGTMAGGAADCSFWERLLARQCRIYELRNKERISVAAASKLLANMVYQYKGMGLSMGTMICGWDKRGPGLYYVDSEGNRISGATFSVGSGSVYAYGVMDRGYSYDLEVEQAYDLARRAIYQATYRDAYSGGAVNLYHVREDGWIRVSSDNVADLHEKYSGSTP
- Sequence (P20618 29-241): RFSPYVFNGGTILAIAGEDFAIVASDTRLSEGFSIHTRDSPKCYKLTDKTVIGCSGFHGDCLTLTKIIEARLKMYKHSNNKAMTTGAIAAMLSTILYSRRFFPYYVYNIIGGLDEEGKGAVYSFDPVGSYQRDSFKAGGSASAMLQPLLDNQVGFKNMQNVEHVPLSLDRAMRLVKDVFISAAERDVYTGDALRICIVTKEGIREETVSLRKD
- Format: cell-based
- cond: assay of Example E, inhibition of MOLT4; read-out: MOLT4 (EC50)
pEC50: −log10 of the molar value.

CC(C)C[C@H](NC(=O)[C@H](CCCNC(=N)N[N+](=O)[O-])NC(=O)CCS(=O)(=O)c1ccccc1)B(O)O	< 5.00
CC(C)C[C@H](NC(=O)[C@H](CCCNC(=N)N[N+](=O)[O-])NC(=O)CCCCCCCCCN1C(=O)c2ccccc2C1=O)B(O)O	> 6.70

Here is the next item to consider.
**Q:** Name the reported pEC50 value associated with the compound CCCCc1ccc(C(=O)N[C@@H](CNC(=O)c2cccs2)C(=O)N[C@@H](CC(C)C)B2O[C@@H]3C[C@@H]4C[C@@H](C4(C)C)[C@]3(C)O2)cc1
**A:** > 6.70
